Recorded values, source paper PMC12136788.

Biological target: T1, UNK ZnF1-3 (human, UniProt Q9C0B0 31-174)
T1 sequence: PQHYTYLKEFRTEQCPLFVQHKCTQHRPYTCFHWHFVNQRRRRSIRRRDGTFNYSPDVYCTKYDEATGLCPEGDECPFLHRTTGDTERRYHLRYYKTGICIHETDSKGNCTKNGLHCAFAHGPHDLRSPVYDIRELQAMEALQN
Assay: nsRBNS (natural sequence RNA bind-n-seq); RBNS binding buffer (assumed for nsRBNS): 25 mM Tris pH 7.5, 150 mM KCl, 3 mM MgCl2, 0.01% Triton X-100, 500 ug/ml BSA, 20 U/ml SUPERase-In, 4 C; UNK is unkempt and MSI1 is Musashi-1; names of the RNAs are library labels; protein concentration not given here; high values mean tight binding
Over roughly 24,000 sequences, “enrichment r” has its median near 0.99; the highest 2% begin near 3.7. These entries were drawn from the full list.
Grouping rule (binding signal): bottom range: < 0.6 enrichment R; center range: ≥ 0.6 enrichment R and < 1 enrichment R; top range: ≥ 1 enrichment R

>  <binder>
chr9:35286173:35286174:+_ENSMUSG00000038119_ENSMUST00000042842|mus_mus|FALSE|FALSE (ssRNA) RNA: GGGAGUUCUACAGUCCGACGAUCAGUAUUAUUGUUACUUGAUGGAACAUACGUCCAUUUCAGCAUGAUCUGAGUGUCGCUAACAGCCUCUGUGUAUGCGAUGUGAGGUCCAGUUAUUGGGCGAUUGGAAAAACGAUUUGGGAACAACAGAGGAUUGAGCAUCA

>  <class-label>
center range

$$$$
>  <binder>
chr18:35748043:35748044:+_ENSMUSG00000037236_ENSMUST00000166793|perfect_dup|FALSE|FALSE (ssRNA) RNA: GGGAGUUCUACAGUCCGACGAUCUGUAUAAAAGAGUGAACACAGCUUACAGUAAAACCCUGUUUUAGGUAUCACAUAGUCUAUACCAACAGGAACAUUAGGCUGAUAUGGUCCGAUUCUAUACUCAUCGGGAAUUGUAUAAUCCAACAGAGGAUUGAGCAUCA

>  <class-label>
bottom range

$$$$
>  <binder>
chr4:88367131:88367132:-_ENSMUSG00000070923_ENSMUST00000094993|mus_hu|motif|central (ssRNA) RNA: GGGAGUUCUACAGUCCGACGAUCUUGGUAAUUGCUAGCUUCCAAAAGCAAAUUCACGCAGGUAUUGUCUGUUCUCAUGAAAUCGGCUGUCUGCACGUAAUUGAUGAGAUCCUGUGGUGUCAUCAGUGGAAAUCGAAUAUUCUUCAACAGAGGAUUGAGCAUCA

>  <class-label>
center range

$$$$
>  <binder>
chr1:44133529:44133530:+_ENSG00000066135_ENST00000372396|hu_hu|FALSE|FALSE (ssRNA) RNA: GGGAGUUCUACAGUCCGACGAUCAAACUCAGCUGCUUCUGGCGUGGGCAGAGUAUGGUCAAUAACUGUGUUGUCCUUCCCAGCUUUCCAAAGUUUGUACCUUUCUGGCUGGAACUUUCUCACAAACACAUCCAUGGAGAUCUUCAACAGAGGAUUGAGCAUCA

>  <class-label>
center range

$$$$
>  <binder>
chr7:52357369:52357370:-_ENSMUSG00000003420_ENSMUST00000003512|mus_hu|FALSE|FALSE (ssRNA) RNA: GGGAGUUCUACAGUCCGACGAUCGUGCUCCCGCAGGCGGUGCGGGCAGGAGAAUAGCAGGAAGGUGAGCUCCUUGUUGGCCGCCUUGUCCUGCUGCUGCCACCGCUGACUGAUAGCCAGGGCCUCGGGCCAGUCCCCACCCCACAACAGAGGAUUGAGCAUCA

>  <class-label>
center range

$$$$
>  <binder>
chr1:220276048:220276049:+_ENSG00000067704_ENST00000302637|hu_hu|hu_hu_hu_mus_True|8_78 (ssRNA) RNA: GGGAGUUCUACAGUCCGACGAUCGCAAAUUGCCUGGUUGGCGGGAAUUGUCCAAGGUUGUGUGGUCCAAACUAAAACGCUAACAGGGGAUGAGGCAUCUGUAAGAGACUCCAACUUCGGAGGAGGUUUUAAGAGAGGGAAUCUCAACAGAGGAUUGAGCAUCA

>  <class-label>
top range

$$$$
>  <binder>
chr15:103023242:103023243:-_ENSMUSG00000009575_ENSMUST00000118152|mus_mus|motif|central (ssRNA) RNA: GGGAGUUCUACAGUCCGACGAUCAACUAGCAGCAUUGAUGAGGGGUUAAGGGAUUGGGGACAGAAACUCACCAAGGUCACGGAGUACUUCCAAACUUGGAAGUAGCUCAGUGAGGGCUAAAAAAACUUCGACUGAAGGUAUCCCAACAGAGGAUUGAGCAUCA

>  <class-label>
top range

$$$$
>  <binder>
chr4:76721835:76721836:+_ENSG00000138768_ENST00000264904|hu_mus|hu_hu_hu_mus_True|48_48 (ssRNA) RNA: GGGAGUUCUACAGUCCGACGAUCGUUUGGCUGGGGUUUCUGAGACGCUCUGGAAUAUAACUCAUGUUUGCUAAUAAAUCCUAGUUUUCUAUGAAAUUUCUCUUUGCCAAUCCUCUUCUCUAUUAGUUGCUUUAGUUUCUCUUUCAACAGAGGAUUGAGCAUCA

>  <class-label>
bottom range

$$$$
>  <binder>
chr7:118215947:118215948:-_ENSMUSG00000005610_ENSMUST00000162415|mus_mus|FALSE|FALSE (ssRNA) RNA: GGGAGUUCUACAGUCCGACGAUCGGUCCUUGCAAUAGACUGCCUCUGCUUGAGAACUUAGGAUGUAAUUAUUGCAUGCUGCUAAUAUUCUAUCUAAACAUUAAGGAUACUCCUAAAGUAUUUGAUGGUAGACUAUGAUUAAGACAACAGAGGAUUGAGCAUCA

>  <class-label>
top range

$$$$
